molecular target: T1, hRET.mFc (human); assay: SPR Biacore T200, mAb capture, 37 C
T1 construct: also called dimeric human RET
Recorded measurements of Kd, one per entry

BINDER: H4H8067P (antibody, human IgG4, V domains shown, human IgG4 Fc (H4H prefix)) VH: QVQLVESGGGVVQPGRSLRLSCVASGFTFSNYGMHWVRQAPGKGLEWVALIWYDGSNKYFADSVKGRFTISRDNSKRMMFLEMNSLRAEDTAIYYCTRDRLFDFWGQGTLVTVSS VL: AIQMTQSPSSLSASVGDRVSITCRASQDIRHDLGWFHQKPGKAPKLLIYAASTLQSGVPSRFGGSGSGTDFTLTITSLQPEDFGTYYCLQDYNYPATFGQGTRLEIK
Kd / nM: 2.24

BINDER: H4H8085P (antibody, human IgG4, V domains shown, human IgG4 Fc (H4H prefix)) VH: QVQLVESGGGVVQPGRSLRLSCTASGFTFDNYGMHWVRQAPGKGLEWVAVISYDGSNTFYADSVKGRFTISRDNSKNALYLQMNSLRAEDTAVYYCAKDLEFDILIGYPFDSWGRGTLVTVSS VL: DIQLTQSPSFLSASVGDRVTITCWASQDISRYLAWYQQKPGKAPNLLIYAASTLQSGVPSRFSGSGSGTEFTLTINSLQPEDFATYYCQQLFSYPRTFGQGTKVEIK
Kd / nM: 5.5

BINDER: H4H8083P (antibody, human IgG4, V domains shown, human IgG4 Fc (H4H prefix)) VH: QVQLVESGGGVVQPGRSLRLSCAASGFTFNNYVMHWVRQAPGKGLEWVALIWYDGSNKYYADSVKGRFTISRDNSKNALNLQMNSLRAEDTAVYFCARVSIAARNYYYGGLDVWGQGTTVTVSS VL: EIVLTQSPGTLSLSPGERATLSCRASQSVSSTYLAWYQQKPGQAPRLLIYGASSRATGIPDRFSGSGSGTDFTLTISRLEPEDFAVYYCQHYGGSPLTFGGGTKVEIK
Kd / nM: 3.02

BINDER: H4H8076P (antibody, human IgG4, V domains shown, human IgG4 Fc (H4H prefix)) VH: QVQLQQSGPGLVKPSQTLSLTCAISGDSVSSNSVAWNWIRQSPSRGLEWLGRTYYRSNWYNTYAVSVKSRITIDPDTSKNQFSLQLNSVTPEDTALYYCARGHRYSGSYFDYWGQGTLVTVSS VL: DIQMTQSPSSLSASVGDRVTITCRASQNINSYFNWYQQKPGKAPKLLIYAASSLQSGVPSRFSGGGSGTDFTLTISSLQPEDFATYYCQQTYTIPWTFGQGTKVEIK
Kd / nM: 2.15

BINDER: H4H8066P (antibody, human IgG4, V domains shown, human IgG4 Fc (H4H prefix)) VH: EVQLVESGGGLVQPGGSLRLSCEASGFTFSRYAMTWVRQAPGKGLEWVSGISGSGGSTFYVDSLQGRFTLSRDNSKHTLFLQMNSLRAEDTAIYYCAKENTYGHFDYWGQGTLVTVSS VL: DIQLTQSPSFLSASVGDRVTITCWASQDISTYLAWYQQKPGKAPQVLIYAASSLQYGVPSRFSGSGSGTEFTLTITSLQPEDFATYYCQQLIGYPYIFGQGTKLEIK
Kd / nM: 1.28
